System: barnyardgrass (Echinochloa crus-galli)
procedure.details: Test A preemergence, barnyardgrass
Assay type: in vivo
applied.conditions: 125 g ai/ha, 0 to 100 scale (0 no effect, 100 complete control)
value.type: Plant response rating, Barnyardgrass

molecule: O=C1NCC(c2cccc(OCC3CC3)c2)C1C(=O)Nc1ccccc1Cl (stereo not shown)
recorded.measurement: 60
//
molecule: CN1CC(c2cccc(Sc3ccccc3)c2)C(C(=O)Nc2cccc(F)c2F)C1=O (single isomer, unassigned)
recorded.measurement: 20
//
molecule: O=C1NCC(c2cccc(Oc3ccccn3)c2)C1C(=O)Nc1ccc(F)c(F)c1F (stereo not shown)
recorded.measurement: 40
//
molecule: CN1CC(c2cccc(Oc3ccc(F)cn3)c2)C(C(=O)Nc2cccc(F)c2C#N)C1=O (single isomer, unassigned)
recorded.measurement: 70
//
molecule: O=C1NCC(c2cccc(OCc3ccccc3)c2)C1C(=O)Nc1ccc(F)cc1F (stereo not shown)
recorded.measurement: 0
//
molecule: O=C1NCC(c2cccc(OCc3ccco3)c2)C1C(=O)Nc1ccccc1F (stereo not shown)
recorded.measurement: 0
//
molecule: O=C1NCC(c2cccc(OCC3OCCO3)c2)C1C(=O)Nc1cccc(F)c1F (stereo not shown)
recorded.measurement: 60
//
molecule: O=C1NCC(c2cccc(OCc3ccco3)c2)C1C(=O)Nc1cccc(F)c1F (stereo not shown)
recorded.measurement: 10
//
molecule: CN1CC(c2cccc(Oc3ccc(C(F)(F)F)cn3)c2)C(C(=O)Nc2cccc(F)c2F)C1=O (single isomer, unassigned)
recorded.measurement: 80
//
molecule: CC1(COc2cccc(C3CNC(=O)C3C(=O)Nc3ccccc3C(F)(F)F)c2)COC1 (stereo not shown)
recorded.measurement: 0

###

Tested on: galium (catchweed bedstraw, Galium aparine)
procedure.details: Test A postemergence, galium
Type: in vivo
applied.conditions: 500 g ai/ha, visual injury, 0 to 100 scale (0 no effect, 100 complete control), approximately 10 days
Binary classification by Plant response rating, Galium, with 20 as an inclusive lower bound for yes (1); all other cases are no (0).

compound: O=C1NCC(c2cccc(Cn3ccc(C(F)(F)F)n3)c2)C1C(=O)Nc1ccc(F)cc1F (stereo not shown) [Compound 24]
category: no (0)
--
compound: O=C1NCC(c2cccc(COc3ccccc3)c2)C1C(=O)Nc1ccccc1Cl (stereo not shown) [Compound 18]
category: no (0)
--
compound: O=C1NCC(c2cccc(OCC3CC3)c2)C1C(=O)Nc1ccccc1Cl (stereo not shown) [Compound 4]
category: no (0)
--
compound: CN(C)N=Cc1cccc(C2CN(C)C(=O)C2C(=O)Nc2ccccc2F)c1 (stereo not shown) [Compound 54]
category: no (0)
--
compound: O=C1NCC(c2cccc(OCC3CC3)c2)C1C(=O)Nc1ccc(F)cc1F (stereo not shown) [Compound 3]
category: yes (1)
--
compound: CN1CC(c2cccc(Oc3ncc(F)cn3)c2)C(C(=O)Nc2ccccc2F)C1=O (single isomer, unassigned) [Compound 36]
category: yes (1)
--
compound: O=C1NCC(c2cccc(Oc3ccccn3)c2)C1C(=O)Nc1ccccc1F (stereo not shown) [Compound 34]
category: yes (1)
--
compound: O=C1NCC(c2cccc(Oc3ncc(F)cn3)c2)C1C(=O)Nc1cccc(F)c1F (single isomer, unassigned) [Compound 37]
category: yes (1)
--
compound: CC1(COc2cccc(C3CNC(=O)C3C(=O)Nc3ccccc3Cl)c2)COC1 (stereo not shown) [Compound 16]
category: no (0)
--
compound: O=C1NCC(c2cccc(COc3ccccc3)c2)C1C(=O)Nc1ccccc1F (stereo not shown) [Compound 19]
category: no (0)
--
compound: O=C1NCC(c2cccc(Cn3ccc(C(F)(F)F)n3)c2)C1C(=O)Nc1cccc(F)c1F (stereo not shown) [Compound 25]
category: no (0)
--
compound: O=C1NCC(c2cccc(Oc3ccccn3)c2)C1C(=O)Nc1ccc(F)c(F)c1F (stereo not shown) [Compound 42]
category: yes (1)
--
compound: CN1CC(c2cccc(Oc3ccc(F)cc3)c2)C(C(=O)Nc2ccccc2F)C1=O (single isomer, unassigned) [Compound 45]
category: yes (1)
--
compound: O=C1NCC(c2cccc(Oc3ccccn3)c2)C1C(=O)Nc1cccc(F)c1F (stereo not shown) [Compound 68]
category: no (0)
--
compound: O=C1NCC(c2cccc(OCc3ccco3)c2)C1C(=O)Nc1cccc(F)c1F (stereo not shown) [Compound 9]
category: no (0)
--
compound: O=C1NCC(c2cccc(Cn3cccn3)c2)C1C(=O)Nc1ccccc1Cl (stereo not shown) [Compound 29]
category: no (0)
--
compound: O=C1NCC(c2cccc(OCC3OCCO3)c2)C1C(=O)Nc1cccc(F)c1F (stereo not shown) [Compound 7]
category: yes (1)
--
compound: O=C1NCC(c2cccc(Cn3cncn3)c2)C1C(=O)Nc1cccc(F)c1F (stereo not shown) [Compound 32]
category: yes (1)
--
compound: O=C1NCC(c2cccc(Oc3ccc(F)cn3)c2)C1C(=O)Nc1cccc(F)c1F (single isomer, unassigned) [Compound 52]
category: yes (1)
